Every entry's value here was drawn from patent US20160053277A1.

Test: 14C assay with IPTG-induced recombinant E. coli cells: 14CO2 captured from [14C]-carboxyl-labeled dicamba
Settings: induced recombinant E. coli cells, [14C]-carboxyl-labeled dicamba, 14CO2 capture

{"molecule": "71 (protein, listed as Burkholderia dolosa) MARAGHRAARTRQSRPGDRTMTCSCCMSAGRRRVLGAFAALAGAPKGPRAASAAQPAAASKPTRGDATARNRHSRALLPGKASASWSATKASGSGGAFAWDDTTFTFRTPAGGLGPLPMKFIDVDARLRDMDASGVDVQALSLSVPMAYWGDRPFNAKLARAWNTAASRVHVRAPDRFVVLATLPMLDATDAIDELERASELPGVRGVYMGTNIDNRDLDDPRFAPVFARIEQLGLPVFLHPQQTVGGARLGDFYLSNLLGNPFDTAIAASHLILGGVLDRHPALHFTLPHAGGALPILVGRLDAGWTVRAETRRLAHQPSGYLRRFSYDTVSHSGPVLNFLIENVGIDRLVLGSDYCFDMGYEQPVRFLDRLDLTPDERAMVIGGNAGRLLRI", "Dicamba Decarboxylase Activity": "Low"}
{"molecule": "15 (protein, listed as Metarhizium anisopliae) MAQEIAKSHETSTRFAGFAVLPMRDPEAAAKELERAVKKLGFVGALVDHKTAHGNGFCEGNEYDVLWRKAEQLAVPIYLHPSWPTEKQFQQAYAGNYSPTAAGTIGGAMFNWHSEVGHHVLRLYAAGVFDKFPKLKIIIGHFGEMIPYMLDRIREQDHRLGKTGRTFSEVYDENIWITTSGVWSLDPMRCILANTKIDHILYSVDYPFTMNERGLEWFQELEKSGLLSEEDLALIAYKNCEKLLGVKAPTQD", "Dicamba Decarboxylase Activity": "Low"}
